System: NCI-H23 lung
Test: NCI tumour cell line growth inhibition, 48 h
Recorded TGI values for a group of compounds are listed next.
A number alone suffices; assume µM.

compound=CCCCCC(=C/c1ccccc1)/C=N/N=C(N)N assay_readout=TGI units_text=µM endpoint_value=3.12
compound=N#Cc1c2ccc([N+](=O)[O-])cc2c(=O)n2c1sc1ccccc12 assay_readout=TGI units_text=µM endpoint_value=43

Look up TGI for this compound: CC(C)C1=CC23CCC4C(C)(C(=O)O)CCCC4(C)C2CC1C1C(=O)N(c2cccc(N4C(=O)C5C6CC7C8(C)CCCC(C)(C(=O)O)C8CCC7(C=C6C(C)C)C5C4=O)c2)C(=O)C13 (configuration not stated)
12.2

* * *

Tested on: HCT-116 colon
Assay: NCI tumour cell line growth inhibition, 48 h
Recorded TGI values for a group of molecules are listed next.

# annotated cases, reported TGI shown
molecule=COc1ccc2c(c1)C(=O)[C@@](Nc1ccc(C=O)cc1)(OC)[C@@](OC)(c1ccc([N+](=O)[O-])cc1)O2 endpoint_value="> 10 µM"
molecule=Cn1c(O)c(C=Nc2ccc(Cl)cc2Cl)c(=O)n(C)c1=O endpoint_value="> 100 µM"
molecule=CCOC(OCC)[C@H](N)[C@@H](O)[C@@H](O)[C@H]1COC(C)(C)O1 endpoint_value="> 100 µM"

We now examine a further molecule.
Look up TGI for this molecule: CC1(C)OC2COC(c3[nH]nc4c(=O)[nH]c(=O)[nH]c34)C2O1 (centres undefined)
> 100 µM

* * *

System: PC-3 prostate
Assay: NCI tumour cell line growth inhibition, 48 h
ASSAY_READOUT: GI50

smiles_repr=CCCCCC(=C/c1ccccc1)/C=N/N=C(N)N endpoint_value="1.4 µM"
smiles_repr=COc1cc2c(cc1OC)-c1ncc3cc(OC)c(OC)c(OC)c3c1C2 endpoint_value="17.1 µM"
smiles_repr=CCCCCCCCCC[N+](C)(C)C endpoint_value="0.978 µM"
smiles_repr=CCCCCCCCCCCCC(NC(C)=O)(C(=O)OCC)C(=O)OCC endpoint_value="7.03 µM"
smiles_repr=COc1cc2c(cc1OC)-c1ncc3cc(OC)c(OC)cc3c1C2 endpoint_value="> 50 µM"

We now examine a further compound.
Look up GI50 for this compound: Cc1ccc(-n2c3c(c4c(CN)c(O)ccc42)CCc2ccccc2C3=O)cc1
4.77 µM

* * *

Recorded TGI values for a group of compounds are listed next.
Test system: SF-268 CNS
Assay: NCI tumour cell line growth inhibition, 48 h

# annotated cases, reported TGI shown
compound="COc1ccc(-c2nc(SC)n(C3OC(COC(C)=O)C(OC(C)=O)C(OC(C)=O)C3OC(C)=O)c(=O)c2C#N)cc1 (stereo not drawn)" assay_readout=TGI endpoint_value="> 100 µM"
compound=O=c1oc2ccccc2n1CCCn1c(=O)oc2ccccc21 assay_readout=TGI endpoint_value="> 100 µM"

Look up TGI for this compound: S=C(S)N1CCN(c2ccccc2)CC1
> 100 µM

* * *

Test system: K-562 leukemia
Test: NCI tumour cell line growth inhibition, 48 h
ASSAY_READOUT: TGI

molecule=CCC(=O)Nc1ncnc2ncn(C(=O)CC)c12 assay_readout=TGI endpoint_value="> 100 µM"
molecule=CCOc1cc(/C=C2\N=C(c3ccccc3)N(c3nc4ccccc4s3)C2=O)ccc1O assay_readout=TGI endpoint_value="> 100 µM"
molecule="CCOC(=O)C(=O)C(/C(=N/N(C)C)C(=O)Nc1ccc(C)cc1C)c1nc2ccccc2[nH]c1=O (configuration not stated)" assay_readout=TGI endpoint_value="> 100 µM"
molecule=CCOC(=O)/C=C(/C(=O)OCC)n1ccc(=O)n(CC(=O)OCC)c1=O assay_readout=TGI endpoint_value="1.62 µM"
molecule=Cn1cc2ccccc2c1-c1nc(F)nc(Nc2ccc(N)cc2)n1 assay_readout=TGI endpoint_value="> 100 µM"
molecule=COc1ccc(Br)c(C=Nc2cccc3cc(OC)c(OC)cc23)c1 assay_readout=TGI endpoint_value="> 39.6 µM"

Look up TGI for this molecule: CC(C)=CCc1c(O)c(C(=O)CC(C)C)c(O)c2c(-c3ccccc3)cc(=O)oc12
> 50 µM

Same question, COc1ccc2[nH]c3c(C)c4ncccc4c(C)c3c2c1 this time
> 10 µM

Same question, CCOC1=NC(C(F)(F)F)(C(F)(F)F)N=C(N2CCCCC2)O1 this time
> 100 µM

Same question, N.N.NCCCCCN.O=C([O-])CC(=O)[O-].O=C([O-])CC(=O)[O-].[Pt+4].[Pt+4] this time
> 100 µM

Same question, O=C1CCC(N2C(=O)c3cccc(NCCOCCOCCNC(=O)c4cc5c(o4)C(=O)c4ccccc4C5=O)c3C2=O)C(=O)N1 (configuration not stated) this time
12.7 µM

Same question, CCCCCCCCCC[N+](C)(C)C this time
7.82 µM

Same question, Cc1ccccc1C[P+](c1ccccc1)(c1ccccc1)c1ccccc1 this time
> 100 µM

Same question, CCCCCCC/C=C1\CCC(CN(C)C)C1=O (configuration not stated) this time
9.53 µM
